- Test system: Amaranthus rudis (AMATA), tall water hemp
- Protocol details: Postemergence herbicide evaluation, growth of Amaranthus rudis (AMATA)
- Assay type: in vivo
- Assay setup: Amaranthus tuberculatus, post-emergence, 168 h, 560 g ae/ha, 7 DAA, percent reduction in plant size relative to untreated control; read-out: Ave. AMATA
Reported property: pest or weed control at 560 g/ha (%)
Answers are plain numbers, in %.

In the examples that follow, each entry is paired with its recorded pest or weed control at 560 g/ha.
O=C(COc1ccc(Cl)cc1Cl)O/N=C/c1ccc(/C=N/OC(=O)COc2ccc(Cl)cc2Cl)cc1 [Compound B3]; 70
O=C(COc1ccc(Cl)cc1Cl)ON1C(=O)c2ccccc2C1=O [Compound A15]; 73
CCO/C(CC)=N\OC(=O)COc1ccc(Cl)cc1Cl [Compound A9]; 78
Cc1cc(OC(=O)COc2ccc(Cl)cc2Cl)n(C)n1 [Compound E6]; 75
O=C(COc1ccc(Cl)cc1Cl)ON(Cc1ccccc1)Cc1ccccc1 [Compound A14]; 55

Batch lookup, pest or weed control at 560 g/ha per entry.
1. O=C(COc1ccc(Cl)cc1Cl)NOc1ccccc1 [Compound D7]
2. Cc1ccc(S(=O)(=O)NC(=O)COc2ccc(Cl)cc2Cl)cc1 [Compound D5]
3. O=C(COc1ccc(Cl)cc1Cl)NNC(=O)c1ccccc1 [Compound D10]
4. C/C(N)=N/OC(=O)COc1ccc(Cl)cc1Cl [Compound A12]

80
73
80
78

Every entry's value here was drawn from patent US20260042731A1.
